- ASSAY PROTOCOL: Cytotoxicity against human Mahlavu cells assessed as growth inhibition after 72 hrs by sulforhodamine B assay
- Format: functional, cell-based
- STATED CONDITIONS: mahlavu
MEASURED ATTRIBUTE: IC50

Worked set:
[[record]]
compound = "COc1ccc2cc(C(C)c3n[nH]c(=S)n3N)ccc2c1 (stereo not given)"
recorded_result = "Not Active"

[[record]]
compound = "CC(c1ccc(-c2ccccc2)c(F)c1)c1n[nH]c(=S)n1N (stereo not given)"
recorded_result = "Not Active"

[[record]]
compound = "COc1ccc2cc([C@H](C)C(=O)O)ccc2c1"
recorded_result = "Not Active"

[[record]]
compound = "CC(C)Cc1ccc(C(C)C(=O)O)cc1 (stereo not given)"
recorded_result = "Not Active"


Turning to the following compound.
What the record says about CC(C(=O)O)c1ccc(-c2ccccc2)c(F)c1 (stereo not given) : IC50 is Not Active

###

I'd be grateful if you could share measured IC50 for these entries.
- ASSAY PROTOCOL: Cytotoxicity against human Mahlavu cells assessed as growth inhibition after 72 hrs by sulforhodamine B assay
- Format: functional, cell-based
- STATED CONDITIONS: Homo sapiens, Mahlavu, 72 h; read-out: IC50
Return type: number; implicit unit µM.

CC(c1ccc(-c2ccccc2)c(F)c1)c1nnc2n1N=C(c1ccc(F)cc1)CS2 (configuration not stated) yielded IC50 of 7.4

Query COc1ccc(C2=Nn3c(nnc3C(C)c3ccc(CC(C)C)cc3)SC2)cc1 (configuration not stated) yields IC50 of 13.6

Kindly note the recorded IC50 for CC(c1ccc(-c2ccccc2)c(F)c1)c1nnc2n1N=C(c1ccc([N+](=O)[O-])cc1)CS2 (configuration not stated) , which is 9.4

Record CC(c1ccc(-c2ccccc2)c(F)c1)c1nnc2n1N=C(c1ccc(Br)cc1)CS2 (configuration not stated) . Reported IC50: 6.2

IC50 reported for this compound CC(c1ccc(-c2ccccc2)c(F)c1)c1nnc2n1N=C(c1ccc(Cl)cc1Cl)CS2 (configuration not stated) : 6.6

For COc1ccc(C2=Nn3c(nnc3C(C)c3ccc(-c4ccccc4)c(F)c3)SC2)cc1 (configuration not stated) the compound record lists IC50 as 5.8

Reported IC50 ( CC(C)Cc1ccc(C(C)c2nnc3n2N=C(c2ccc(Br)cc2)CS3)cc1 (configuration not stated) ) = 8.9

IC50 for Cc1ccc(C2=Nn3c(nnc3C(C)c3ccc(CC(C)C)cc3)SC2)cc1 (configuration not stated) is 8.5

For record CC(c1ccc(-c2ccccc2)c(F)c1)c1nnc2n1N=C(c1ccc(Cl)cc1)CS2 (configuration not stated) the listed IC50 is 6.1

Record CC(C)Cc1ccc(C(C)c2nnc3n2N=C(c2ccc(OC(F)(F)F)cc2)CS3)cc1 (configuration not stated) , field IC50: 9.1

Value of IC50 reported for the compound CC(C)Cc1ccc(C(C)c2n[nH]c(=S)n2N)cc1 (configuration not stated) is 16.2

###

- ASSAY PROTOCOL: Cytotoxicity against human HCT116 cells assessed as growth inhibition after 72 hrs by sulforhodamine B assay
- Type: functional, cell-based, HCT-116
- STATED CONDITIONS: Homo sapiens, HCT-116, 72 h; read-out: IC50
MEASURED ATTRIBUTE: pIC50
As a rule, pIC50 stands for the negative log10 of the concentration, concentration in M.

response.value for COc1ccc2cc(C(C)c3nnc4n3N=C(c3ccc([N+](=O)[O-])cc3)CS4)ccc2c1 (centres undefined) (field: pIC50) = 4.82

// pIC50 value for CC(C)Cc1ccc(C(C)c2nnc3n2N=C(c2ccc(Cl)cc2Cl)CS3)cc1 (centres undefined) : 4.95

pIC50 in this record for CC(c1ccc(-c2ccccc2)c(F)c1)c1nnc2n1N=C(c1ccc(Cl)cc1Cl)CS2 (centres undefined) : 5.16

// recorded pIC50 for CC(C)Cc1ccc(C(C)c2nnc3n2N=C(c2ccc(C(F)(F)F)cc2)CS3)cc1 (centres undefined) : 5.19

// COc1ccc2cc(C(C)c3nnc4n3N=C(c3ccc(C(F)(F)F)cc3)CS4)ccc2c1 (centres undefined) : pIC50 value = 4.97

What the record says about CC(C)Cc1ccc(C(C)c2nnc3n2N=C(c2ccc(OC(F)(F)F)cc2)CS3)cc1 (centres undefined) : pIC50 is 5.52

pIC50 measured on CC(c1ccc(-c2ccccc2)c(F)c1)c1nnc2n1N=C(c1ccc(Br)cc1)CS2 (centres undefined) = 5.15

# molecule COc1ccc2cc(C(C)c3nnc4n3N=C(c3ccc(F)cc3)CS4)ccc2c1 (centres undefined) ; its pIC50 = 4.88

Recorded result, CC(c1ccc(-c2ccccc2)c(F)c1)c1nnc2n1N=C(c1ccc([N+](=O)[O-])cc1)CS2 (centres undefined) , pIC50: 5.15
